system: hCB1R (Homo sapiens, UniProt P21554)
Sequence (P21554 whole entry): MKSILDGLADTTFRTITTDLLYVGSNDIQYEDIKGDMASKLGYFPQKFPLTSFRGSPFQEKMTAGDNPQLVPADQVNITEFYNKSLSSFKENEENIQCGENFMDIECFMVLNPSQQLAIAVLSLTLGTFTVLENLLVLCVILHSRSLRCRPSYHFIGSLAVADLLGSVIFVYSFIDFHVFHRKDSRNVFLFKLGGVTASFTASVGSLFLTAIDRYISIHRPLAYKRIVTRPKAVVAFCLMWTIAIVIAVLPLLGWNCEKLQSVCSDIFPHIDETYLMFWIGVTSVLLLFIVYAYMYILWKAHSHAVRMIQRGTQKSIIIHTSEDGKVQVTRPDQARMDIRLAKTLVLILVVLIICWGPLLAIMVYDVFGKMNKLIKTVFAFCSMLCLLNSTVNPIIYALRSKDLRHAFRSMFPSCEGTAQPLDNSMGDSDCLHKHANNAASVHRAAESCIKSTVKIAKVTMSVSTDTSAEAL
method.description: In vitro functional assay (FLIPR, intracellular Ca2+) with recombinant HEK293 cells, CB1
Assay type: cell-based
Parameters: expressed in transfected cells; host or cells: HEK293
assay.setup: recombinant HEK293 cells expressing CB1 and Galpha16; 20 min preincubation, then reference agonist; Ca2+ change; read-out: hCB1R: FLIPR; IC50
pIC50: recorded values
For clarity, pIC50 is expressed as the negative log10 of concentration in mol/L.

These recorded examples may help you get a feel for the data.
entry.smiles | pIC50
CC1(C)C(=O)N(c2ccc(C#N)c(C(F)(F)F)c2)C(=O)N1Cc1ccccc1Nc1ccc(C(=O)O)c(O)c1 | 7.00
COC(=O)c1ccc(Nc2ccccc2CN2C(=O)N(c3ccc(C#N)c(C(F)(F)F)c3)C(=O)C2(C)C)c(F)c1 | 7.62
CC1(C)C(=O)N(c2ccc(C#N)c(C(F)(F)F)c2)C(=O)N1Cc1ccc(C(F)(F)F)cc1Nc1ccc(C(=O)O)cc1 | 6.95
CC(C)Oc1ccc(Nc2ccccc2CN2C(=O)N(c3ccc(C#N)c(C(F)(F)F)c3)C(=O)C2(C)C)cc1 | 8.15
CC1(C)C(=O)N(c2ccc(C#N)c(C(F)(F)F)c2)C(=O)N1Cc1ccccc1Nc1ccc(S(C)(=O)=O)cc1Cl | 6.97
CC1(C)C(=O)N(c2ccc(C#N)c(C(F)(F)F)c2)C(=O)N1Cc1cc(Cl)cc(Cl)c1Nc1ccc(F)cc1 | 7.15
CC(C)(C)OC(=O)c1ccc(Nc2cc(F)ccc2CN2C(=O)N(c3ccc(C#N)c(C(F)(F)F)c3)C(=O)C2(C)C)cc1 | 6.96
COC(=O)c1ccc(Nc2cc(F)ccc2CN2C(=O)N(c3ccc(F)c(C(F)(F)F)c3)C(=O)C2(C)C)cc1 | 8.10

Please provide the recorded pIC50 for CC1(C)C(=O)N(c2ccc(C#N)c(C(F)(F)F)c2)C(=O)N1Cc1ccccc1Nc1ccc(S(N)(=O)=O)cc1F , tested on hCB1R (Homo sapiens, UniProt P21554).
6.84

Please provide the recorded pIC50 for CC1(C)C(=O)N(c2ccc(C#N)c(-c3ccc(F)cc3)c2)C(=O)N1Cc1ccc(F)cc1Nc1ccc(F)cc1F , tested on hCB1R (Homo sapiens, UniProt P21554).
7.54

Please provide the recorded pIC50 for CC(C)(C)c1cc(N2C(=O)N(Cc3ccc(F)cc3Nc3ccc(F)cc3F)C(C)(C)C2=O)ccc1C#N , tested on hCB1R (Homo sapiens, UniProt P21554).
8.00

Please provide the recorded pIC50 for CC1(C)C(=O)N(c2ccc(F)c(C(F)(F)F)c2)C(=O)N1Cc1ccc(F)cc1Nc1ccc2c(c1)C(=O)CCO2 , tested on hCB1R (Homo sapiens, UniProt P21554).
6.99

Please provide the recorded pIC50 for CC1(C)C(=O)N(c2ccc(C#N)c(C(F)(F)F)c2)C(=O)N1Cc1ccccc1Nc1ccc2c(c1)C(=O)OC2 , tested on hCB1R (Homo sapiens, UniProt P21554).
8.10

Please provide the recorded pIC50 for CC1(C)C(=O)N(c2ccc(C#N)c(C(F)(F)F)c2)C(=O)N1Cc1ccccc1Nc1ccc(CC(=O)O)cc1 , tested on hCB1R (Homo sapiens, UniProt P21554).
6.86

Please provide the recorded pIC50 for Cc1cc(N2C(=O)N(Cc3ccc(F)cc3Nc3ccc(C(=O)O)cc3)C(C)(C)C2=O)ccc1C#N , tested on hCB1R (Homo sapiens, UniProt P21554).
7.12

Please provide the recorded pIC50 for CC1(C)C(=O)N(c2ccc(C#N)c(C(F)(F)F)c2)C(=O)N1Cc1ccccc1Nc1ccc(N)cc1 , tested on hCB1R (Homo sapiens, UniProt P21554).
8.40

Please provide the recorded pIC50 for COC(=O)c1ccc(Nc2cc(F)ccc2CN2C(=O)N(c3ccc(C#N)c(C4CC4)c3)C(=O)C2(C)C)cc1 , tested on hCB1R (Homo sapiens, UniProt P21554).
8.05

Please provide the recorded pIC50 for COC(=O)C1=C[C@@H](O)[C@H](O)[C@@H](Oc2ccc(Nc3ccccc3CN3C(=O)N(c4ccc(C#N)c(C(F)(F)F)c4)C(=O)C3(C)C)cc2)O1 , tested on hCB1R (Homo sapiens, UniProt P21554).
7.85

Please provide the recorded pIC50 for CC1(C)C(=O)N(c2ccc(C#N)c(C(F)(F)F)c2)C(=O)N1Cc1ccc(Cl)cc1Nc1ccc(C(=O)O)cc1 , tested on hCB1R (Homo sapiens, UniProt P21554).
7.82
